- Test system: K-562 leukemia
- test-summary: NCI-60 one-dose screen, 48 h (100 = growth as untreated, 0 = no growth, -100 = all killed)
- experimental-conditions: 10 µM
This is part of a sample that, as a whole, favours compounds with a hit. Of some 83,000 tested, about 20% had one in any assay.
Label Not satisfied if growth falls below 10%; label Satisfied in every other case.

Solved entries:
Record `O=C(Nc1ccncc1)C(=O)c1cn(S(=O)(=O)c2cccc3ccccc23)c2ccccc12` ; criterion: growth no lower than 10%. Met?
Satisfied

Record `CCN(CC)CCOc1nc2ccc(OC)cc2c2c1-c1ccc(OC)cc1C2=O` ; criterion: growth no lower than 10%. Met?
Not satisfied

Record `CC(=O)OCc1cc(-c2nc3ccccc3[nH]c2=O)nn1-c1ccc(Cl)cc1` ; criterion: growth no lower than 10%. Met?
Satisfied

---
Record Cc1cn(C2CCCCO2)c(=O)nc1NO (stereo not given) ; criterion: growth no lower than 10%. Met?
Satisfied

Record `CCC(=O)N1C/C(=C/c2ccc(Br)cc2)C(=O)/C(=C/c2ccc(Br)cc2)C1` ; criterion: growth no lower than 10%. Met?
Not satisfied

Record `COc1cc(-c2cc(/C=C/C(=O)c3ccc(N)cc3)[nH]n2)cc(OC)c1OC` ; criterion: growth no lower than 10%. Met?
Satisfied

Record `CC(C)=CCc1ccc(O)c(=O)cc1C(C)C` ; criterion: growth no lower than 10%. Met?
Satisfied

Record COc1ccc(CN2CCC(N3CCCC3=O)c3cc(Cl)ccc32)cc1 (stereo not given) ; criterion: growth no lower than 10%. Met?
Satisfied

Record `COc1cc(/C(=C2/O[C@@H]([C@H]3COC(C)(C)O3)[C@H]3OC(C)(C)O[C@@H]23)c2ccc3ccccc3c2)cc(OC)c1OC` ; criterion: growth no lower than 10%. Met?
Satisfied

Record CCc1ccc2c(c1)N(CCO)C1=C(C(=O)OC1)C2c1cc(OC)c(OC)c(OC)c1 (stereo not given) ; criterion: growth no lower than 10%. Met?
Satisfied
